Test system: Pseudomonas aeruginosa ATCC 8689
PROTOCOL SUMMARY: MIC against bacteria (Table I), strain (4)
Format: cell-based
MEASUREMENT PARAMETERS: ATCC8689; (4) Pseudomonas aeruginosa ATCC 8689; read-out: MIC
READOUT KIND: MIC (µg/mL)
Answer format: numeric, µg/mL implied, no suffix.

// known answers, use as guide
CC(C)(Sc1nnc(SCC2=C(C(=O)O)N3C(=O)[C@@H](NC(=O)[C@H](NC(=O)c4cnccc4O)c4ccccc4)[C@H]3SC2)s1)C(=O)O [Example 22]; 12.5
Cc1cncc(C(=O)N[C@@H](C(=O)N[C@@H]2C(=O)N3C(C(=O)O)=C(CSc4nnc(SCC(=O)O)s4)CS[C@H]23)c2ccccc2)c1O [Example 27]; 12.5
O=C(O)CSc1nnc(SCC2=C(C(=O)O)N3C(=O)[C@@H](NC(=O)[C@H](NC(=O)c4cnccc4O)c4ccc(O)cc4)[C@H]3SC2)s1 [Example 33]; 25

Turning to the following compound.
[in] Reported MIC, compound O=C(O)CCSc1nnc(SCC2=C(C(=O)O)N3C(=O)[C@@H](NC(=O)[C@H](NC(=O)c4cnccc4O)c4ccccc4)[C@H]3SC2)s1 [Example 5] : ____
[out] 12.5

###

System: Salmonella typhi H901 W
PROTOCOL SUMMARY: MIC against bacteria (Table I), strain (9)
Format: cell-based
MEASUREMENT PARAMETERS: Salmonella enterica, TYPHI
The following compounds are shown together with reported MIC values.
Answer format: numeric, µg/mL implied, no suffix.

// known answers, use as guide
O=C(O)Cc1nnc(SCC2=C(C(=O)O)N3C(=O)[C@@H](NC(=O)[C@H](NC(=O)c4csccc4=O)c4ccc(O)cc4)[C@H]3SC2)s1; 1.56
O=C(O)CCc1nnc(SCC2=C(C(=O)O)N3C(=O)[C@@H](NC(=O)[C@H](NC(=O)c4cnccc4O)c4ccccc4)[C@H]3SC2)s1; 1.56

Turning to the following compound.
[in] Reported MIC, compound `O=C(O)C1=C(CSc2nnc(SCCS(=O)(=O)O)s2)CS[C@@H]2[C@H](NC(=O)[C@H](NC(=O)c3cnccc3O)c3ccccc3)C(=O)N12` : ____
[out] 1.56

###

The following compounds are shown together with reported remaining at 0.25 h values.
PROTOCOL SUMMARY: Residual antibacterial activity after incubation with 10% liver homogenate (Table 4)
Type: in vitro ADME, male Sprague-Dowley rat
MEASUREMENT PARAMETERS: 10% liver homogenate; 10% rat liver homogenate, 15 minute; read-out: Residual activity
Answer format: numeric, % implied, no suffix.

// known answers, use as guide
O=C(O)C1=C(CSc2nnc(SCCS(=O)(=O)O)s2)CS[C@@H]2[C@H](NC(=O)[C@H](NC(=O)c3cnccc3O)c3ccccc3)C(=O)N12; 100
O=C(O)CSc1nnc(SCC2=C(C(=O)O)N3C(=O)[C@@H](NC(=O)[C@H](NC(=O)c4cnccc4O)c4ccccc4)[C@H]3SC2)s1; 93.5
O=C(O)CCc1nnc(SCC2=C(C(=O)O)N3C(=O)[C@@H](NC(=O)[C@H](NC(=O)c4cnccc4O)c4ccccc4)[C@H]3SC2)s1; 95.7

[in] Reported remaining at 0.25 h, compound O=C(Cc1cccs1)N[C@@H]1C(=O)N2C(C(=O)[O-])=C(C[n+]3ccccc3)CS[C@H]12 [Cephaloridine, reference compound] : ____
[out] 82.3

###

Tested on: Pseudomonas aeruginosa ATCC 8689
PROTOCOL SUMMARY: MIC against bacteria (Table I), strain (4)
Type: cell-based
MEASUREMENT PARAMETERS: ATCC8689; (4) Pseudomonas aeruginosa ATCC 8689; read-out: MIC
The following compounds are shown together with reported MIC values.
Answer format: numeric, µg/mL implied, no suffix.

// known answers, use as guide
O=C(O)Cn1nnnc1SCC1=C(C(=O)O)N2C(=O)[C@@H](NC(=O)[C@H](NC(=O)c3cnccc3O)c3ccccc3)[C@H]2SC1; 25
CSc1ccc2c(=O)c(C(=O)N[C@@H](C(=O)N[C@@H]3C(=O)N4C(C(=O)O)=C(CSc5nnc(SCC(=O)O)s5)CS[C@H]34)c3ccccc3)c[nH]c2c1; 25
CC(Sc1nnc(SCC2=C(C(=O)O)N3C(=O)[C@@H](NC(=O)[C@H](NC(=O)c4cnccc4O)c4ccccc4)[C@H]3SC2)s1)C(=O)O (stereo partly drawn); 12.5
O=C(O)CSc1nnc(SCC2=C(C(=O)O)N3C(=O)[C@@H](NC(=O)[C@H](NC(=O)c4cnccc4O)c4ccccc4)[C@H]3SC2)s1; 12.5
O=C(O)Cc1nnc(SCC2=C(C(=O)O)N3C(=O)[C@@H](NC(=O)[C@H](NC(=O)c4csccc4=O)c4ccc(O)cc4)[C@H]3SC2)s1; 50

Turning to the following compound.
[in] Reported MIC, compound `Cc1nc(SCC2=C(C(=O)O)N3C(=O)[C@@H](NC(=O)[C@H](NC(=O)c4cnccc4O)c4ccccc4)[C@H]3SC2)sc1CC(=O)O` : ____
[out] 12.5

###

PROTOCOL SUMMARY: Solubility of salts in water (Table 2)
Assay type: physicochemical
MEASUREMENT PARAMETERS: disodium salt, water, showing pH 7.4; read-out: Solubility: disodium salt dissolved in water in an amount of
READOUT KIND: solubility

// known answers, use as guide
O=C(O)CSc1cc(SCC2=C(C(=O)O)N3C(=O)[C@@H](NC(=O)[C@H](NC(=O)c4cnccc4O)c4ccccc4)[C@H]3SC2)ncn1 [Example 16]; > 200 mg/mL
COc1ccncc1C(=O)N[C@@H](C(=O)N[C@@H]1C(=O)N2C(C(=O)O)=C(CSc3nnc(SCC(=O)O)s3)CS[C@H]12)c1ccccc1 [Example 26]; > 200 mg/mL

Turning to the following compound.
[in] Reported solubility, compound Cc1nc(SCC2=C(C(=O)O)N3C(=O)[C@@H](NC(=O)[C@H](NC(=O)c4cnccc4O)c4ccccc4)[C@H]3SC2)sc1SCC(=O)O [Example 24] : ____
[out] > 200 mg/mL

###

The following compounds are shown together with reported log10(MIC) values.
System: Shigella flexneri 2a 1675
PROTOCOL SUMMARY: MIC against bacteria (Table I), strain (11)
Assay type: cell-based
MEASUREMENT PARAMETERS: 2A1675; (11) Shigella flexneri 2a 1675; read-out: MIC
Log10 applied to MIC; unit prior to transform: µg/mL.

O=C(O)CCCc1nnc(SCC2=C(C(=O)O)N3C(=O)[C@@H](NC(=O)[C@H](NC(=O)c4cnccc4O)c4ccccc4)[C@H]3SC2)s1 [Example 35]; 0.19
O=C(O)CSc1nnc(SCC2=C(C(=O)O)N3C(=O)[C@@H](NC(=O)[C@H](NC(=O)c4cnccc4O)c4ccccc4)[C@H]3SC2)s1 [Example 4]; -0.11
COc1ccncc1C(=O)N[C@@H](C(=O)N[C@@H]1C(=O)N2C(C(=O)O)=C(CSc3nnc(SCC(=O)O)s3)CS[C@H]12)c1ccccc1 [Example 26]; 0.50
COc1cc(O)ncc1C(=O)N[C@@H](C(=O)N[C@@H]1C(=O)N2C(C(=O)O)=C(CSc3nnc(SCC(=O)O)s3)CS[C@H]12)c1ccccc1 [Example 28]; 1.40
CC(=O)OCC1=C(C(=O)O)N2C(=O)[C@@H](NC(=O)Cc3cccs3)[C@H]2SC1 [Cephalotin, reference compound]; 0.80

Turning to the following compound.
[in] Reported log10(MIC), compound O=C(O)Cc1nnc(SCC2=C(C(=O)O)N3C(=O)[C@@H](NC(=O)[C@H](NC(=O)c4cnccc4O)c4ccccc4)[C@H]3SC2)s1 [Example 25] : ____
[out] 0.19

###

Test system: Shigella flexneri 2a 1675
PROTOCOL SUMMARY: MIC against bacteria (Table I), strain (11)
Assay type: cell-based
MEASUREMENT PARAMETERS: 2A1675; (11) Shigella flexneri 2a 1675; read-out: MIC
READOUT KIND: MIC (µg/mL)
Answer format: numeric, µg/mL implied, no suffix.

// known answers, use as guide
O=C(O)CCc1nnc(SCC2=C(C(=O)O)N3C(=O)[C@@H](NC(=O)[C@H](NC(=O)c4cnccc4O)c4ccccc4)[C@H]3SC2)s1; 0.78
CSc1ccc2c(=O)c(C(=O)N[C@@H](C(=O)N[C@@H]3C(=O)N4C(C(=O)O)=C(CSc5nnc(SCC(=O)O)s5)CS[C@H]34)c3ccccc3)c[nH]c2c1; 1.56

Turning to the following compound.
[in] Reported MIC, compound `O=C(O)CCC(=O)Nc1nnc(SCC2=C(C(=O)O)N3C(=O)[C@@H](NC(=O)[C@H](NC(=O)c4csccc4=O)c4ccccc4)[C@H]3SC2)s1` : ____
[out] 6.25

###

Test system: Proteus vulgaris 0X 19US
PROTOCOL SUMMARY: MIC against bacteria (Table I), strain (2)
Format: cell-based
MEASUREMENT PARAMETERS: 0X19US; (2) Proteus vulgaris 0X 19US; read-out: MIC
READOUT KIND: MIC (µg/mL)
Answer format: numeric, µg/mL implied, no suffix.

Nn1c(SCC(=O)O)nnc1SCC1=C(C(=O)O)N2C(=O)[C@@H](NC(=O)[C@H](NC(=O)c3cnccc3O)c3ccccc3)[C@H]2SC1 [Example 30]; 0.78
CC(Sc1nnc(SCC2=C(C(=O)O)N3C(=O)[C@@H](NC(=O)[C@H](NC(=O)c4cnccc4O)c4ccccc4)[C@H]3SC2)s1)C(=O)O (stereo partly drawn) [Example 21]; 0.19
O=C(O)Cn1nnnc1SCC1=C(C(=O)O)N2C(=O)[C@@H](NC(=O)[C@H](NC(=O)c3cnccc3O)c3ccccc3)[C@H]2SC1 [Example 15]; 0.39
Cc1cc(O)c(C(=O)N[C@@H](C(=O)N[C@@H]2C(=O)N3C(C(=O)O)=C(CSc4nnc(CCCC(=O)O)s4)CS[C@H]23)c2ccccc2)cn1 [Example 36]; 100
CSc1ccc2c(=O)c(C(=O)N[C@@H](C(=O)N[C@@H]3C(=O)N4C(C(=O)O)=C(CSc5nnc(SCC(=O)O)s5)CS[C@H]34)c3ccccc3)c[nH]c2c1 [Example 12]; 0.19

Turning to the following molecule.
[in] Reported MIC, molecule O=C(O)CCSc1nnc(SCC2=C(C(=O)O)N3C(=O)[C@@H](NC(=O)[C@H](NC(=O)c4cnccc4O)c4ccccc4)[C@H]3SC2)s1 [Example 5] : ____
[out] 0.19
